# System: MDA-MB-436 cells
# experiment: Anti-proliferative activity assay, BRCA-mutated MDA-MB-436 cells (CCK8)
# Assay type: cell-based
# assay_setup: Homo sapiens, MDA-MB-436, BRCA-mutated, 72 h + 96 h
Please note: IC50 exactly at 0.9 nM is no. Only values below 0.9 nM get yes.

Use these answered entries as a reference point.
1. [2H]C(c1cnc2cc(CC)c(=O)[nH]c2c1)N1CC=C(c2ccc(C(=O)NC)nc2)CC1 (stereo not drawn): no
2. [2H]C([2H])([2H])C([2H])([2H])c1cc2ncc(CN3CC=C(c4ccc(C(=O)NC)nc4)CC3)cc2[nH]c1=O: yes
3. [2H]C([2H])([2H])Cc1cc2ncc(CN3CC=C(c4ccc(C(=O)NC)nc4)CC3)cc2[nH]c1=O: yes
4. [2H]C([2H])([2H])NC(=O)c1ccc(C2=CCN(Cc3cnc4cc(CC)c(=O)[nH]c4c3)CC2)cn1: no

Proceed to the following item.
Prompt line: Determine if [2H]C([2H])([2H])NC(=O)c1ccc(C2=CCN(Cc3cnc4cc(C([2H])([2H])C([2H])([2H])[2H])c(=O)[nH]c4c3)CC2)cn1 shows IC50 strictly lower than 0.9 nM.
Response line: yes
